molecular target: recombinant human SAE enzyme (Homo sapiens (Human)); assay: SAE HTRF enzyme assay; assay type: biochemical; conditions: Concentration 0.111 μM
The entries below are paired with their reported Percent Inhibition.

compound	Percent Inhibition
NS(=O)(=O)OC[C@H]1C[C@@H](Nc2ncncc2C(=O)c2cc([C@@H]3NCCc4ccc(Br)cc43)c(Cl)s2)[C@H](O)[C@@H]1O (single isomer, unassigned) [I-259b]	97
NC(c1cccc(Cl)c1)c1cc(C(=O)c2cncnc2NC2CC(O)C(COS(N)(=O)=O)C2)sc1Cl (mixture of isomers)	100
N[C@H](c1cccc(Cl)n1)c1cc(C(=O)c2cncnc2N[C@@H]2C[C@H](COS(N)(=O)=O)[C@@H](O)C2)sc1Cl (single isomer, unassigned) [I-25b]	99

* * *

The entries below are paired with their reported Percent Inhibition.
target: recombinant human SAE enzyme (Homo sapiens (Human), UniProt Q9UBT2); experiment: SAE HTRF enzyme assay; format: biochemical; settings: Concentration 0.111 μM
Sequence (Q9UBT2 whole entry): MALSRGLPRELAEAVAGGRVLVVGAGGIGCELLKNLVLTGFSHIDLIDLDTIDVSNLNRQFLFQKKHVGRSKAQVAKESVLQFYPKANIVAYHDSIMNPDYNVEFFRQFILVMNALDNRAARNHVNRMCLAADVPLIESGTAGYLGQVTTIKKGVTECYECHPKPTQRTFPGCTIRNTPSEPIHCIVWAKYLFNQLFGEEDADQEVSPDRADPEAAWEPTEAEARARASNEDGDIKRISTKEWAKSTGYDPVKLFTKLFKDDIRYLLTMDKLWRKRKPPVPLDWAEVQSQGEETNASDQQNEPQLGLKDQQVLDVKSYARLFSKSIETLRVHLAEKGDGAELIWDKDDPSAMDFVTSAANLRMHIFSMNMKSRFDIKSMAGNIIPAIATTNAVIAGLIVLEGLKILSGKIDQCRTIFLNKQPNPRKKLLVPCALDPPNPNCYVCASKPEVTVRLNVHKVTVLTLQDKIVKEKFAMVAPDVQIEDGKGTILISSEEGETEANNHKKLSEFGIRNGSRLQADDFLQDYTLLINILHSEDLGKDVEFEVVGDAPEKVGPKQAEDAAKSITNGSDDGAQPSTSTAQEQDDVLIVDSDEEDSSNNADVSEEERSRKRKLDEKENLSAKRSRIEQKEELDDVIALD
Sequence (Q9UBE0 whole entry partner): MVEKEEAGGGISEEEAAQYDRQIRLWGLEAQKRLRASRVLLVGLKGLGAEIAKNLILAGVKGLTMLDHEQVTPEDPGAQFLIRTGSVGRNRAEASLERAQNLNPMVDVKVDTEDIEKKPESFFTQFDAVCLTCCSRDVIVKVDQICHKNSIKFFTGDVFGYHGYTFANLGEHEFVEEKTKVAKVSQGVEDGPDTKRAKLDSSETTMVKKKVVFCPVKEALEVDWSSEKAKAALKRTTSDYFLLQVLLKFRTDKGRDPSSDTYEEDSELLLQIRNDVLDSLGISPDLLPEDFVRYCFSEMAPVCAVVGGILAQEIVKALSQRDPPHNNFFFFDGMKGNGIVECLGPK
property_measured: Percent Inhibition

compound	property_measured	measured
N[C@H](c1cccc(Br)c1)c1cc(C(=O)c2cncnc2N[C@@H]2C[C@H](COS(N)(=O)=O)[C@@H](O)[C@H]2O)sc1Cl (single isomer, unassigned) [I-24a]	Percent Inhibition	101
N[C@@H](c1cccc(Br)n1)c1cc(C(=O)c2cncnc2N[C@@H]2C[C@H](COS(N)(=O)=O)[C@@H](O)[C@H]2O)sc1Cl (single isomer, unassigned) [I-10b]	Percent Inhibition	97
Cc1sc(C(=O)c2cncnc2NC2CC(O)C(COS(N)(=O)=O)C2)cc1C(O)c1cccc(Cl)c1 (mixture of isomers) [I-11]	Percent Inhibition	99
CC(c1cccc(Cl)c1)c1csc(C(=O)c2cncnc2N[C@@H]2C[C@H](COS(N)(=O)=O)[C@@H](O)C2)c1 (single isomer, unassigned) [I-117a]	Percent Inhibition	73
NS(=O)(=O)OC[C@H]1C[C@@H](Nc2ncncc2C(=O)c2cc(Cl)c([C@H](O)c3cccc(Cl)c3)s2)C[C@@H]1O (single isomer, unassigned) [I-151a]	Percent Inhibition	80

* * *

The entries below are paired with their reported IC50.
biological target: recombinant human SAE enzyme (Homo sapiens (Human), UniProt Q9UBT2); experiment: SAE HTRF enzyme assay; type: biochemical; settings: class symbols A/B/C
property_measured: IC50

compound	measured
NS(=O)(=O)OC[C@H]1C[C@@H](Nc2ncncc2C(=O)c2cc(COc3ccccc3C(F)(F)F)cs2)C[C@@H]1O	10 to 100 nM
NS(=O)(=O)OC[C@H]1C[C@@H](Nc2ncncc2C(=O)c2cc(COc3cccc(Cl)c3Cl)cs2)C[C@@H]1O	10 to 100 nM
NS(=O)(=O)OC[C@H]1C[C@@H](Nc2ncncc2C(=O)c2cc(C3SCCc4ccc(Cl)cc43)cs2)[C@H](O)[C@@H]1O (single isomer, unassigned) [I-278a]	10 to 100 nM
Cc1oc(C(=O)c2cncnc2N[C@@H]2C[C@H](COS(N)(=O)=O)[C@@H](O)C2)cc1Cc1cccc(Cl)c1	< 10 nM
Cc1cn(Cc2csc(C(=O)c3cncnc3N[C@@H]3C[C@H](COS(N)(=O)=O)[C@@H](O)C3)c2)c2ccccc12	< 10 nM
CC(N)(c1cccc(Cl)c1)c1csc(C(=O)c2cncnc2N[C@@H]2C[C@H](COS(N)(=O)=O)[C@@H](O)[C@H]2O)c1 (single isomer, unassigned) [I-8b]	< 10 nM
